Experiment: Leishmania major promastigote growth inhibition, primary screen (AID 1063);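 note: promastigotes grown with compound for 44 hours at 28 °C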
Details: Leishmania major promastigotes, resazurin fluorescence viability; at 10 µM
In all, about 200,000 compounds went through this assay and about 18,000 (9%) were called active. Cut-off read from the data, not from the text of the source: active = inhibition above about 50%; inactive = the rest. This is one part of a sample in which actives are shown more often than they occur.
Write down one outcome, taken from active, inactive

# count of solved cases: 3
[
  {
    "compound": "CC1CC(C)CN(C/C=C/c2ccccc2[N+](=O)[O-])C1 (stereo not given)",
    "labelClass": "active"
  },
  {
    "compound": "CCOC(=O)CN1CCC(c2ccccc2)CC1",
    "labelClass": "inactive"
  },
  {
    "compound": "CC(=O)Nc1ccc(Nc2nc3c(S(=O)(=O)c4ccc(C)c(C)c4)nnn3c3ccccc23)cc1",
    "labelClass": "inactive"
  }
]

Attention now shifts to the item below.
Problem: Which outcome was entered for the compound `CC(C)CNC(=O)COC(=O)/C=C/c1ccccc1[N+](=O)[O-]` in this test?
Result: inactive

----------
Experiment: Leishmania major promastigote growth inhibition, primary screen (AID 1063);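 note: promastigotes grown with compound for 44 hours at 28 °C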
Conditions: Leishmania major promastigotes, resazurin fluorescence viability; at 10 µM
About 18,000 (9%) of roughly 200,000 compounds were called active. No stated cut-off is given here; in the data, active means inhibition above about 50%; inactive means the rest. This is one part of a sample in which actives are shown more often than they occur.
Write down one outcome, taken from True for active, False for inactive

[
  {
    "compound": "O=C(/C=C/c1ccccc1[N+](=O)[O-])NCC1CCCO1 (configuration not stated)",
    "labelClass": "True"
  }
]

Problem: Which outcome was entered for the compound `Cc1cc(NC(=O)/C=C/C(=O)N(CC(=O)NC2CCCC2)c2ccc(F)cc2)no1` in this test?
Result: False

Problem: Which outcome was entered for the compound `O=C(CN1CCCCCC1)NCCN1C(=O)S/C(=C\c2ccccc2Cl)C1=O` in this test?
Result: False

Problem: Which outcome was entered for the compound `O=C(c1c(Cl)nc2sccn12)N1CCCc2ccccc21` in this test?
Result: False

----------
Assay: Leishmania major promastigote growth inhibition, primary screen (AID 1063);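 note: promastigotes grown with compound for 44 hours at 28 °C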
Conditions: Leishmania major promastigotes, resazurin fluorescence viability; at 10 µM
Out of some 200,000 compounds screened, about 18,000 (9%) were called active. Rule as the data show it: active = inhibition above about 50%; inactive = the rest. For the sample, actives were picked, then their nearest neighbours and some compounds at random.
Write down one outcome, taken from true (1) = active, false (0) = inactive

# count of solved cases: 5
[
  {
    "compound": "O=C(/C=C/c1ccc(Cl)cc1Cl)NCc1ccco1",
    "labelClass": "false (0)"
  },
  {
    "compound": "CC1CC2=C(CC1/C=N/NC(N)=S)C(C)(C)CCC2 (centres undefined)",
    "labelClass": "true (1)"
  },
  {
    "compound": "COCCn1c(C)cc(C(=O)COC(=O)/C=C/c2cccc(OC)c2)c1C",
    "labelClass": "false (0)"
  },
  {
    "compound": "Cc1cc(N2CCN(C)CC2)nc2ccc(NC(=S)N3CCOCC3)cc12",
    "labelClass": "false (0)"
  },
  {
    "compound": "O=C(CC1SCCNC1=O)Nc1ccc(Cl)cc1 (centres undefined)",
    "labelClass": "false (0)"
  }
]

Problem: Which outcome was entered for the compound `Cc1cccc(OCC(=O)Nc2ccccc2F)c1` in this test?
Result: false (0)

Problem: Which outcome was entered for the compound CCNC(=O)NNC(=O)C1CC(c2cccs2)=NO1 (centres undefined) in this test?
Result: false (0)

Problem: Which outcome was entered for the compound CC(C)Cn1c(N)c(C(=O)COC(=O)CN2C(=O)C3CC=CCC3C2=O)c(=O)n(C)c1=O (centres undefined) in this test?
Result: false (0)

Problem: Which outcome was entered for the compound `O=C(O/N=C(/c1ccccc1)c1ccncc1)c1ccccc1[N+](=O)[O-]` in this test?
Result: false (0)

----------
Test: Leishmania major promastigote growth inhibition, primary screen (AID 1063);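 note: promastigotes grown with compound for 44 hours at 28 °C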
Conditions: Leishmania major promastigotes, resazurin fluorescence viability; at 10 µM; stronger effect = higher value
Screen size: about 200,000 compounds; about 18,000 (9%) were called active. Shown is part of a subset that was picked to be rich in actives.
// classify: if (inhibition < 20%) yes (1) else no (0)

# count of solved cases: 3
[
  {
    "molecule": "C=CCn1c(C)cc(C2=NNC(=NCC)SC2)c1C",
    "labelClass": "no (0)"
  },
  {
    "molecule": "COc1ccc(C2CC(c3ccc(C)cc3)Nc3nc(N)nn32)cc1 (stereo not given)",
    "labelClass": "yes (1)"
  },
  {
    "molecule": "O=c1cc(N2CCCCC2)c(-c2ccccc2)nn1Cc1cccc(F)c1",
    "labelClass": "yes (1)"
  }
]

Problem: Threshold test, inhibition < 20%: CC1COc2ccccc2N1S(=O)(=O)c1ccccc1 (stereo not given)
Result: yes (1)

Problem: Threshold test, inhibition < 20%: COc1ccc(C)cc1NC(=O)C(OC(=O)c1cccc(S(=O)(=O)N(C)c2ccccc2)c1)c1ccccc1 (stereo not given)
Result: no (0)

----------
Assay: Leishmania major promastigote growth inhibition, primary screen (AID 1063);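 note: promastigotes grown with compound for 44 hours at 28 °C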
Settings: Leishmania major promastigotes, resazurin fluorescence viability; at 10 µM
Screen size: about 200,000 compounds; about 18,000 (9%) were called active. No stated cut-off is given here; in the data, active means inhibition above about 50%; inactive means the rest. The list comes from a sample in which actives are over-represented; it also holds close analogues and randomly drawn compounds.
Write down one outcome, taken from Yes = active, No = inactive

# count of solved cases: 10
[
  {
    "molecule": "CCC(=O)c1ccc(OCC(O)CN2CCN(c3cccc(C(F)(F)F)c3)CC2)cc1 (centres undefined)",
    "labelClass": "No"
  },
  {
    "molecule": "Cc1nc(CN2CCN(C(=O)CCc3nnc(Cc4c[nH]c5ccccc45)o3)CC2)cs1",
    "labelClass": "No"
  },
  {
    "molecule": "COc1cccc(-c2nn(C)c3sc(C(=O)N4CCN(c5ccccc5)CC4)cc23)c1",
    "labelClass": "No"
  },
  {
    "molecule": "NS(=O)(=O)c1ccc(Nc2nc(-c3ccccc3)cs2)cc1",
    "labelClass": "Yes"
  },
  {
    "molecule": "CC(=O)c1cccc(-n2nnnc2SCC(=O)NNC(=O)C2CCCCC2)c1",
    "labelClass": "No"
  },
  {
    "molecule": "CC(=O)N1c2ccccc2N(Cc2ccc([N+](=O)[O-])cc2)C(=O)C1(C)C",
    "labelClass": "Yes"
  },
  {
    "molecule": "CCOC(=O)C1(Cc2cccc(OC)c2)CCCN(S(=O)(=O)c2cccnc2)C1 (centres undefined)",
    "labelClass": "No"
  },
  {
    "molecule": "C=CCC(C(=O)c1ccccc1)[N+](C)(C)CC=C (centres undefined)",
    "labelClass": "No"
  },
  {
    "molecule": "CCn1c(=S)[nH]c2sc3c(c2c1=O)CCCCC3",
    "labelClass": "No"
  },
  {
    "molecule": "COc1cc(/C=N/n2c(C)n[nH]c2=S)ccc1OCc1ccccc1",
    "labelClass": "No"
  }
]

Problem: Which outcome was entered for the molecule `CCOC(=O)c1ccc(NC(=S)N2CCCC2)cc1` in this test?
Result: No

Problem: Which outcome was entered for the molecule `COc1ccccc1CNC(=O)CNC(=O)c1cn(-c2ccccc2OC)c(=O)c2ccccc12` in this test?
Result: No

Problem: Which outcome was entered for the molecule `COc1ccccc1N1CCN(C(=O)c2cn(-c3ccccc3)nc2-c2cccnc2)CC1` in this test?
Result: Yes

Problem: Which outcome was entered for the molecule CCC(C)(C)NC(=O)C(c1cccc(OC)c1OC)N(CC(C)C)C(=O)CCC(=O)Nc1cc(C)on1 (centres undefined) in this test?
Result: No

Problem: Which outcome was entered for the molecule `COc1cc(/C=C2/C(=O)ON=C2C)ccc1OCc1cccc(F)c1` in this test?
Result: Yes

Problem: Which outcome was entered for the molecule `COc1ccc(CN2CN(C3CCCC3)CSC2=S)cc1` in this test?
Result: No

Problem: Which outcome was entered for the molecule `COc1ccccc1N1CCN(C(=O)c2cc3c(-c4ccc(Cl)cc4)nn(C)c3s2)CC1` in this test?
Result: Yes

Problem: Which outcome was entered for the molecule `COC(=O)C1=CN(Cc2ccc(OC)c(OC)c2)C=C(C(=O)OC)C1c1cccs1` in this test?
Result: Yes

Problem: Which outcome was entered for the molecule `COc1ccc(CN(C(=O)c2cccs2)c2nccs2)cc1OC` in this test?
Result: No

----------
Experiment: Leishmania major promastigote growth inhibition, primary screen (AID 1063);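 note: promastigotes grown with compound for 44 hours at 28 °C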
Details: Leishmania major promastigotes, resazurin fluorescence viability; at 10 µM; stronger effect = higher value
In all, about 200,000 compounds went through this assay and about 18,000 (9%) were called active. The sample holds actives, similar compounds and a random draw of the others, so the mix is not that of the screen.
readoutType: inhibition (%)
The reply should be a number in %, with the unit left off.

Here are 8 compounds together with their reported answers.
[
  {
    "compound": "CCn1c(CNc2ccc(OC)cc2)nnc1SCC(=O)c1ccc(OC)cc1",
    "readoutType": "inhibition",
    "quantitativeReadout": 70.5
  },
  {
    "compound": "S=c1[nH]nc(-c2ccccc2)n1/N=C/c1c[nH]c2ccccc12",
    "readoutType": "inhibition",
    "quantitativeReadout": 54.7
  },
  {
    "compound": "COc1ccc(CCNC2=C(Cl)C(=O)N(Cc3ccccc3)C2=O)cc1OC",
    "readoutType": "inhibition",
    "quantitativeReadout": 8.4
  },
  {
    "compound": "Cc1c(NC(=O)C(C)OC(=O)c2cc3c4ccccc4n(C)c3s2)c(=O)n(-c2ccccc2)n1C (centres undefined)",
    "readoutType": "inhibition",
    "quantitativeReadout": 88.6
  },
  {
    "compound": "O=C1CC(c2c(F)cccc2Cl)C(n2cncn2)C(O)=C1C1NCCc2ccccc21 (centres undefined)",
    "readoutType": "inhibition",
    "quantitativeReadout": -6.44
  },
  {
    "compound": "CCNS(=O)(=O)c1ccc(NC(=O)Nc2cccc(OC)c2)cc1",
    "readoutType": "inhibition",
    "quantitativeReadout": 3.37
  },
  {
    "compound": "CCn1c(COc2ccc(OC)cc2)nnc1SCC(=O)Nc1cc(OC)ccc1OC",
    "readoutType": "inhibition",
    "quantitativeReadout": 60.8
  },
  {
    "compound": "O=C(Nc1ccc(S(=O)(=O)Nc2ncccn2)cc1)c1cncc(Br)c1",
    "readoutType": "inhibition",
    "quantitativeReadout": -5.97
  }
]

The compound identified as `COC(=O)Nc1c(C)n(C)n(-c2ccccc2)c1=O` registered its inhibition at -8.78

All values here come from PubChem BioAssay AID1063.
